test system: MALME-3M melanoma; assay: NCI tumour cell line growth inhibition, 48 h
The reader will find reported GI50 values listed item by item below.
ENDPOINT_NAME: GI50

# MOLECULE, SUBJECT_OF_TEST, ENDPOINT_NAME, MEASUREMENT
records = [
    ("OC1(c2ccccc2)c2ccccc2N(c2ccccc2)c2ccc(Cl)cc21 (stereo unspecified)", "MALME-3M melanoma", "GI50", "0.237 µM"),
    ("CN(C)c1ccc(-c2cc(-c3cccc(NS(C)(=O)=O)c3)nc(N)c2C#N)cc1", "MALME-3M melanoma", "GI50", "0.948 µM"),
    ("CCn1nc(C#Cc2c(C)ccc3c(Nc4ccc(Cl)cc4)nccc23)c2c(N)ncnc21", "MALME-3M melanoma", "GI50", "2.1 µM"),
    ("CC1(C)CC[C@]2(C(=O)O)CC[C@]3(C)C(=CC[C@@H]4[C@@]5(C)C/C(=C/c6cccnc6)[C@H](O)C(C)(C)[C@@H]5CC[C@]43C)[C@@H]2C1", "MALME-3M melanoma", "GI50", "13.4 µM"),
    ("CC/C(=C\\c1ccc(N(C)C)cc1)c1ccncc1", "MALME-3M melanoma", "GI50", "4.52 µM"),
    ("COc1cc2nc(NC3CCC3)nc(NC3CCN(C(C)C)CC3)c2cc1OC", "MALME-3M melanoma", "GI50", "1.76 µM"),
    ("CC(=O)Nc1ccc(/C=C/C(=O)c2sc(-n3nc(-c4ccccc4)cc3-c3ccccc3)nc2C)cc1", "MALME-3M melanoma", "GI50", "> 100 µM"),
    ("Nc1nc(N)c2nc(CNc3ccc(C(=O)NC(CCC(=O)O)C(=O)O)cc3)cnc2n1 (stereo unspecified)", "MALME-3M melanoma", "GI50", "0.921 µM"),
    ("CCCCCCCCCCCCNC(=O)N[C@H](C(=O)N[C@H]1/C=C/OCCNC(=O)/C=C/[C@H](C(C)C)NC1=O)C(C)C", "MALME-3M melanoma", "GI50", "39.3 µM"),
    ("FC(F)(F)c1ccc(-c2cnc(-c3nn[nH]n3)nc2NC2CCCCCC2)cc1", "MALME-3M melanoma", "GI50", "> 10 µM"),
    ("C=C(C)[C@@H]1CC[C@]2(C(=O)OC)CC[C@]3(C)[C@H](CC[C@@H]4[C@@]5(C)CC/C(=N\\OCCC(=NCCC#N)NOCCC#N)C(C)(C)[C@@H]5CC[C@]43C)[C@@H]12", "MALME-3M melanoma", "GI50", "11.8 µM"),
    ("O=c1[nH]c(-c2ccncc2)nc2sc3c(c12)CCCCCC3", "MALME-3M melanoma", "GI50", "> 100 µM"),
    ("CC(=O)[O-].O=C([CH-]C(=O)c1ccccc1)c1ccccc1.O=C([CH-]C(=O)c1ccccc1)c1ccccc1.[Dy+3]", "MALME-3M melanoma", "GI50", "21.8 µM"),
    ("Cc1n[nH]c(C)c1-c1c(C)n[nH]c1C", "MALME-3M melanoma", "GI50", "1.7 µM"),
    ("CCOc1ccc(-c2nc3ccc(-c4nc5ccc(N6CCN(C)CC6)cc5[nH]4)cc3[nH]2)cc1OCC", "MALME-3M melanoma", "GI50", "0.222 µM"),
    ("C=C1C(=O)O[C@H]2[C@H]1CC/C(COC(=O)NCc1ccc(Cn3c(=O)sn(CCCI)c3=O)cc1)=C\\CC[C@@]1(C)O[C@@H]21", "MALME-3M melanoma", "GI50", "1.39 µM"),
    ("Cc1cc(C)c(CNC(=O)c2cc(Cl)c3c(c2C)O[C@@](C)(C2CCC(N(C)C)CC2)O3)c(=O)[nH]1 (stereo partly specified)", "MALME-3M melanoma", "GI50", "45.3 µM"),
    ("C=C(CN1CCc2ccccc2C1)c1ccc(C(=O)Nc2cccc(N)c2)cc1", "MALME-3M melanoma", "GI50", "15.1 µM"),
    ("CN(C)CCCn1c2c(c3ccc(N4CCNCC4)cc3c1=O)C(=O)c1ccccc1-2", "MALME-3M melanoma", "GI50", "1.42 µM"),
    ("Cc1ccc(CNc2ccc(Cl)cc2NCc2ccc(C)c(O)c2)cc1O", "MALME-3M melanoma", "GI50", "6.2 µM"),
    ("CCN(CC)CCCC(C)Nc1ccnc2cc(OC)ccc12 (stereo unspecified)", "MALME-3M melanoma", "GI50", "22.1 µM"),
]

From: PubChem BioAssay (NCI)
